This collection of values is drawn from patent US20240376185A1.

system name: tetanus neurotoxin (TeNT), authentic tetanus holotoxin (Clostridium tetani, UniProt P04958 2-1315)
Sequence (P04958 2-457 limits assumed, chain 1 of 2): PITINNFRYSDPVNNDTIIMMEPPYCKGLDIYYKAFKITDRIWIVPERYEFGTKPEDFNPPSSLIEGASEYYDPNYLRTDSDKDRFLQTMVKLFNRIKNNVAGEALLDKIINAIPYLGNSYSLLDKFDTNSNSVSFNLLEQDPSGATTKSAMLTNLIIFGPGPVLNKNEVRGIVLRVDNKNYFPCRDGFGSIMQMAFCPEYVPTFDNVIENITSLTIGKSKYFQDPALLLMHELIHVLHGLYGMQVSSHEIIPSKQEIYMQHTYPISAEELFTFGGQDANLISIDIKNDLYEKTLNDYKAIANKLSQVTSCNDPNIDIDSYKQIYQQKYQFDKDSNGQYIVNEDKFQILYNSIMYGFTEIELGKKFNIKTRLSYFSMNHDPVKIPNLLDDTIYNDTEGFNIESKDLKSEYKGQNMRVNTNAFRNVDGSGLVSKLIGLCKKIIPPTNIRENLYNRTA
Sequence (P04958 458-1315 limits assumed, chain 2 of 2): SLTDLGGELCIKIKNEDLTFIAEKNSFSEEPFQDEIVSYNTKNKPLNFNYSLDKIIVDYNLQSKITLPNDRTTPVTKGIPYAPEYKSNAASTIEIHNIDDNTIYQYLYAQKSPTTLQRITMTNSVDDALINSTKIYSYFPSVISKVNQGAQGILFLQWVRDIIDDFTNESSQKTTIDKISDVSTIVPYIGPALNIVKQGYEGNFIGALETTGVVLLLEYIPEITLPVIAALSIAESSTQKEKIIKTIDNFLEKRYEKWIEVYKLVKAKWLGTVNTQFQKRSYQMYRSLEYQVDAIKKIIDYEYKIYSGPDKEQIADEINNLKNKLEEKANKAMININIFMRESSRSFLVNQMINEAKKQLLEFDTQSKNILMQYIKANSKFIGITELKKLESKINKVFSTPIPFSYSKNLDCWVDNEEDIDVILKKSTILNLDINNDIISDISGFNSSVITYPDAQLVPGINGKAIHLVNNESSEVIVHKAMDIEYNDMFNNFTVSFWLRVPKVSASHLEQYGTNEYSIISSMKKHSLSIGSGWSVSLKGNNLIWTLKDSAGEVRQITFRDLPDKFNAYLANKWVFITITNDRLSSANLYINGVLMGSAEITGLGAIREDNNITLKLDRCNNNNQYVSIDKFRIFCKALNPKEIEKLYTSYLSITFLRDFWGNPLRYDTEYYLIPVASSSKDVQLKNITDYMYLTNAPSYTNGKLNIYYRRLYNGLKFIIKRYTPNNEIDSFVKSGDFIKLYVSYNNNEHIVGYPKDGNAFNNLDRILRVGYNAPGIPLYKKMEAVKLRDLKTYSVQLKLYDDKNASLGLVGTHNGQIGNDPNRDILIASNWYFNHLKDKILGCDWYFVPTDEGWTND
assay overview: competition ELISA on TeNT, binder biotinylated; competitor SVT34L
Rule: % inhibition of binding under 10% gives 0 (no), otherwise 1 (yes).

Look over these answered cases.
SVT34L (VHH) VHH: QVQLQESGGGLVQPGGSLRLSCAASGRTISSYAMGWFRQAPGKQREFVAAISRSGGNTYYTDSVKGRFIISRDNAKNTLYLQMNNLKPEETAVYYCAADPNLMYESKWKYRALEAWGQGTLVTVSS : 1 (yes)
SVT15L-3FW4M (VHH) VHH: QVQLQESGGGLVQTGGSLRLSCRASGRAFANYHFGWFRQAPGKDREFVASISWKGGSTYYANFALGRFTSSVDRAESSVYLQMSGLTPEDTATYYCAAHDGGDWNYHTGMDYWGQGTQVTVSS : 0 (no)
SVT06L (VHH) VHH: QVQLQESGGGSVQAGGSLRLSCTASELSYDDYTIAWFRRAAGEGRVEDGEGVASITKSYDRAYDNKINYGHSVKGRFTISRDNAKNTVYLQMTDLLPSDTAVYYCALDITPPGGVGASLTEGFLFDYWGQGTQVTVSS : 1 (yes)
SVT02L (VHH) VHH: QVQLQQSGGGSVQAGGSLRLSCVGPQRTFSTYGMGWFRQAPGKEREFVAGINYKGDTTYYADSVKGRFTISRDNAKNTLYLQMDSLKPEDRAVYQCARKGGLGGDYRDAGQYRYWGQGTQVTVSS : 0 (no)
SVT08L (VHH) VHH: QVQLQESGGGSVQAGGSLRLSCTASEFSYNDYTIAWFRRAAGKGRVEDGEGVASITTSYDRAYDNRIHYGDSVKGRFTISRDNAKNTVYLQMTNLNPSDTAVYYCGLDITPPGGIGASLTEGFLFDYWGQGTQVTVSS : 0 (no)

-- ask Quick check: does SVT03L (VHH) VHH: QVQLQQSGGGSVQTGDSLTLSCTASGGSLNSYFVGWFRQSGGKEREFVSVIARTGRSTSYADSVKGRFTISRDNAANTVFLTMNNLRPDDTAIYYCAAVGRPGVLHLTQSYDYWGQGTQVTVSS have % inhibition of binding greater than or equal to 10%?
-- reply 0 (no)

-- ask Quick check: does SVT22L (VHH) VHH: QVQLQESGGGLVQAGESLRLSCTASGISFDDYAIGWFRQAPGQQRKGVACISKADGRTDYLGSVKGRFTLSTDNTKNTVHLQMNNLKPEDTALYTCAAEYKSCGMGYKPIDYWGQGMQVTVSS have % inhibition of binding greater than or equal to 10%?
-- reply 1 (yes)

-- ask Quick check: does SVT13L (VHH) VHH: QVQLQESGGGLVQAGGSLRLSCAVSGTNFDDYAIGWFRQAPGKRREAVACISKTDGVTRYGNGVKGRFTISSDEARNTVFLQMNDLKDEDTAIYYCIGDFKSCGMGYKPIDHWGRGIQVTVSS have % inhibition of binding greater than or equal to 10%?
-- reply 1 (yes)

-- ask Quick check: does SVT16L (VHH) VHH: QVQLQESGGGSVQAGDSLRLSCAASGRTISNYAMGWFRQAPGKQREFVAAISRSDNTYYTDSVKGRFTISRDNAKNTLYLQMNSLKPEETAVYYCAADPNLMYESKWKYRALEAWGQGTLVTVSS have % inhibition of binding greater than or equal to 10%?
-- reply 1 (yes)
